- System: Histoplasma capsulatum
- Type: cell-based
Measured MIC, H. capsulatum, listed per entry for reference.

# Compound, Unit Spec, Sign, MIC, H. capsulatum
records = [
    ("Cc1ccc(N2CCN(c3ccc(-n4cnn(CC(O)(Cn5cncn5)c5ccc(F)cc5F)c4=O)cc3)CC2)cc1 (stereo not shown) [Compound 39]", "µg/mL", "=", 0.05),
    ("Cc1ccc(N2CCN(c3ccc(-n4cnn(CC(O)(Cn5cncn5)c5ccc(F)cc5F)c4=O)cc3)CC2)c(C)c1 (stereo not shown) [Compound 54]", "µg/mL", "=", 0.06),
    ("COc1ccc(F)cc1N1CCN(c2ccc(-n3cnn(CC(O)(Cn4cncn4)c4ccc(F)cc4F)c3=O)cc2)CC1 (stereo not shown) [Compound 59]", "µg/mL", "<", 0.03),
    ("Cc1ccc(N2CCN(c3ccc(-n4cnn(CC(O)(Cn5cncn5)c5ccc(F)cc5F)c4=O)cc3)CC2)cc1Cl (stereo not shown) [Compound 49]", "µg/mL", "<", 0.03),
    ("Cc1nn(CC(O)(Cn2cncn2)c2ccc(F)cc2F)c(=O)n1-c1ccc(N2CCN(c3ccc(F)cc3)CC2)cc1 (stereo not shown) [Compound 36]", "µg/mL", "<", 0.02),
    ("Nc1ccc(N2CCN(c3ccc(-n4cnn(CC(O)(Cn5cncn5)c5ccc(F)cc5F)c4=O)cc3)CC2)c(N)c1 (stereo not shown) [Compound 38]", "µg/mL", ">", 16),
    ("COc1ccc(N2CCN(c3ccc(-n4cnn([C@H](C)[C@](O)(Cn5cncn5)c5ccc(F)cc5F)c4=O)cc3)CC2)cc1 [Compound 13]", "µg/mL", "=", 0.06),
]

Sourced from patent US6670363B1
